Would you kindly list EC50 for each of these molecules?
Molecular target: Transcriptional activator protein LasR (Pseudomonas aeruginosa (strain ATCC 15692 / PAO1 / 1C / PRS 101 / LMG12228))
Sequence (P25084 whole entry): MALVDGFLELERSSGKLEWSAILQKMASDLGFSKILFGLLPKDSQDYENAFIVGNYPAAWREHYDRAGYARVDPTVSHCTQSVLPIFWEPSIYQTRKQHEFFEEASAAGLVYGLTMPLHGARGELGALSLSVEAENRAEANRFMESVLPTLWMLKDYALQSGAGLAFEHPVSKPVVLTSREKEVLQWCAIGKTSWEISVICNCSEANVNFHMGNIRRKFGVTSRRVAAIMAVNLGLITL
Test: Agonist activity at Pseudomonas aeruginosa LasR cognate receptor expressed in Escherichia coli harboring pKDT17 assessed as activation of lasB expression by LacZ reporter gene assay
Assay type: functional
Give bare numbers, in nM.

Reference set, count: 3
CCCCCCCCCC(O)CC(=O)N[C@H]1CCOC1=O (some centres not stated)
54
CCCCCCCCCC(=O)CC(=O)N[C@H]1CCSC1=O
7
CCCCCCCCCCCC(=O)N[C@H]1CCOC1=O
33

Quick request: EC50 for each listed item, please.
1. CCCCC/C=C/CCC(=O)CC(=O)N[C@H]1CCOC1=O
2. CCCCCCCCCCCC(=O)CC(=O)N[C@H]1CCOC1=O
3. CCCCCCCC(=O)CC(=O)N[C@H]1CCOC1=O
4. CCCCCC(=O)CC(=O)N[C@H]1CCOC1=O

Response:
1. 10
2. 15
3. 15
4. 150

----------
Biological target: Transcriptional activator protein LuxR (Aliivibrio fischeri)
Sequence (P12746 whole entry): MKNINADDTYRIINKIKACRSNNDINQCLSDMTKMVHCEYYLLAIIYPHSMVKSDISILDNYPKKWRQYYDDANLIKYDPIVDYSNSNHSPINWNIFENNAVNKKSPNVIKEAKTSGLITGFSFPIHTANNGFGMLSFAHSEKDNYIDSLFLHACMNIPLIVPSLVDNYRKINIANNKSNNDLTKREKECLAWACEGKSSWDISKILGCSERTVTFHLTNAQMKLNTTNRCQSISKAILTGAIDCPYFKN
Assay: Agonist activity at Vibrio fischeri luxR receptor in absence of natural autoinducer
Measurement Kind: pEC50
Answers are plain numbers, as −log10 of the molar value.

Query: Give the reported value of pEC50 for this record: O=C(Cc1cccc([N+](=O)[O-])c1)N[C@H]1CCOC1=O
Response: 6.46
